FYI, the data here is from PubChem BioAssay AID1851.

biological target: Cytochrome P450 2D6 (Homo sapiens); test: Cytochrome panel assay with activity outcomes; settings: recombinant CYP, pro-luciferin dealkylation, luminescence, p450-cyp2d6; series mostly up to 57.1 µM
The whole screen tested about 16,000 compounds, of which about 2,600 (16%) were called active. About 20% were inconclusive and are not listed. The call rests on the fitted dose curve; in most records, active means well fitted curve in the direction sought with a large enough effect; inconclusive means small, poorly fitted or top-dose-only effect, or effect the other way; inactive means no such curve, though single readings can be large or run the other way. These entries were drawn from the full list.
Output constraint: value belongs to y = active, n = inactive

{"columns": ["compound", "category"],
 "data": [
  ["COc1ccc(NC(=O)CCNS(=O)(=O)c2ccc3c(c2)c(=O)n(C)c(=O)n3C)cc1", "n"],
  ["CCOC(=O)C1=C(C)NC(C)=C(C(=O)OC)[C@@H]1c1cccc([N+](=O)[O-])c1", "n"]
]}

**Query** Could you check what this test reported for CSc1nc2n(n1)C(c1cccc(F)c1)C(C(=O)Nc1ccc(C)cc1C)=C(C)N2 (configuration not stated) ?
**Result** n

**Query** Could you check what this test reported for COc1ccc(OCCSc2ncn[nH]2)cc1 ?
**Result** n

**Query** Could you check what this test reported for CCN(CC)Cc1c(O)c(Cl)cc2c3c(c(=O)oc12)CCCC3 ?
**Result** y

**Query** Could you check what this test reported for Cc1cccc(Nc2ccccc2C(=O)OCC(=O)N(C)C2CCS(=O)(=O)C2)c1C (configuration not stated) ?
**Result** n

**Query** Could you check what this test reported for Cc1ccccc1-c1cc(NCc2cccnc2)ncn1 ?
**Result** n

====

Biological target: Cytochrome P450 2D6 (Homo sapiens)
Assay: Cytochrome panel assay with activity outcomes
Settings: recombinant CYP, pro-luciferin dealkylation, luminescence, p450-cyp2d6; series mostly up to 57.1 µM
Description: The P450 gene superfamily is involved in the metabolism and clearance of xenobiotics. This assay used various human CYP P450 isozymes to measure the dealkylation of various pro-luciferin substrates to luciferin. The luciferin is then measured by luminescence after the addition of a luciferase detection reagent. […] Inhibitors and some substrates limit the production of luciferin, and decrease measured luminescence. […] 8, Detection, 1 sec, ViewLux luminescent read […]
In all, about 16,000 compounds went through this assay and about 2,600 (16%) were called active. Another 20% or so got no clear call; they are omitted. Calls follow the shape of the dose curve; as a rule, active = well fitted curve in the direction sought with a large enough effect; inconclusive = small, poorly fitted or top-dose-only effect, or effect the other way; inactive = no such curve, though single readings can be large or run the other way. The list is a sample of the results.
Output constraint: value belongs to active, inactive

Illustrative cases are given below, each with its answer.
{"columns": ["compound", "category"],
 "data": [
  ["NCCSSCCN", "inactive"],
  ["COc1ccccc1C(OC(=O)c1cccs1)C(=O)NCC1CCCO1 (configuration not stated)", "inactive"],
  ["O=C(Nc1ccccc1)/C(=C\\c1ccc2c(c1)OCO2)NC(=O)c1ccco1", "active"]
]}

**Query** Could you check what this test reported for O=C(CCN1C(=O)C2C3C=CC(C3)C2C1=O)Nc1c(F)cccc1F (configuration not stated) ?
**Result** inactive

**Query** Could you check what this test reported for Cc1ccc(CCN2CC(C(=O)NC3CCCC3)CC2=O)cc1 (configuration not stated) ?
**Result** inactive

**Query** Could you check what this test reported for Cc1ccc(NC(=O)/C(=C\c2cccnc2)NC(=O)c2ccco2)cc1 ?
**Result** inactive

**Query** Could you check what this test reported for O=C(CS(=O)c1cccc(Cl)c1)Nc1ccccc1Cl (configuration not stated) ?
**Result** inactive

**Query** Could you check what this test reported for COc1ccc(C(=O)Nn2cnc3ccccc3c2=O)c(OC)c1 ?
**Result** inactive

**Query** Could you check what this test reported for O=C(NCc1ccco1)c1cc(C(=O)C2CC2)c[nH]1 ?
**Result** inactive

**Query** Could you check what this test reported for CCOC(=O)c1c(NC(=O)c2c(Br)cnn2C)c(C#N)nn1-c1ccccc1 ?
**Result** inactive

**Query** Could you check what this test reported for CCOc1ccc(C(C)=O)cc1N1C(=O)C2C3C=CC(C3=C(C)C)C2C1=O (configuration not stated) ?
**Result** inactive

**Query** Could you check what this test reported for Cc1ccc(-n2c(-c3cc(C)n(C)n3)n[nH]c2=S)cc1 ?
**Result** inactive

**Query** Could you check what this test reported for CN1CCN([C@@H]2Cc3ccccc3Sc3ccc(Cl)cc32)CC1 ?
**Result** active

**Query** Could you check what this test reported for COC(=O)c1cc(NC(=O)CC2NC3CCCCC3NC2=O)cc(C(=O)OC)c1 (configuration not stated) ?
**Result** inactive

**Query** Could you check what this test reported for O=C(Nn1cnc2ccccc2c1=O)c1ccc(F)cc1Cl ?
**Result** active

**Query** Could you check what this test reported for Cc1ccc(NC(=O)CCc2c(C)nc3ncnn3c2C)nc1 ?
**Result** inactive

**Query** Could you check what this test reported for COc1ccc(NC(=O)CN2CCN(CC(=O)Nc3ccccc3Cl)CC2)cc1 ?
**Result** inactive

**Query** Could you check what this test reported for CCOC(=O)N1CCN(C(=O)CNS(=O)(=O)c2cccs2)CC1 ?
**Result** inactive

**Query** Could you check what this test reported for Cc1cc(CSc2ccccc2)ccc1NC(=O)COc1ccccc1 ?
**Result** inactive

**Query** Could you check what this test reported for O=C(c1ccc(Cl)cc1)N1CCN(C(=O)c2ccco2)CC1 ?
**Result** inactive

**Query** Could you check what this test reported for O=[N+]([O-])c1cccnc1N1CCCCC1 ?
**Result** inactive

**Query** Could you check what this test reported for O=C(CCN1CCN(CC(=O)Nc2ccccc2Cl)CC1)Nc1ccccc1F ?
**Result** active

**Query** Could you check what this test reported for COc1ccccc1-c1cncnc1NCc1ccccc1 ?
**Result** active
